Assay: gradient 5% acetonitrile 3 min, to 50% in 2 min, to 85% in 15 min, held 3 min, 100 µL/min
Conditions: column: Zorbax Extend-C18 2.1 x 50 mm; eluents: water / acetonitrile, 0.1% formic acid
Criterion: RP-LC retention time strictly under 800 s. Met: condition met. Not met: condition not met.

Below, 2 compounds whose answers are already recorded.
compound | assigned-class
O=C(NC1CCCC1)c1nnc(-c2ccc(S(=O)(=O)N3CCCCC3)cc2)o1 | condition not met
Cc1ccsc1CN1CCc2nc(N3CCN(c4ccc(F)cc4)CC3)ncc2C1 | condition met

For the next question, use this compound.
Query: Confirm or reject: RP-LC retention time of COc1ccc2c(C)c(C(=O)Nc3cc(C)ns3)oc2c1 lies strictly below 800 s
Result: condition not met
